Molecular target: T1, human SPNS2 (human, UniProt Q8IVW8 1-549)
T1 sequence: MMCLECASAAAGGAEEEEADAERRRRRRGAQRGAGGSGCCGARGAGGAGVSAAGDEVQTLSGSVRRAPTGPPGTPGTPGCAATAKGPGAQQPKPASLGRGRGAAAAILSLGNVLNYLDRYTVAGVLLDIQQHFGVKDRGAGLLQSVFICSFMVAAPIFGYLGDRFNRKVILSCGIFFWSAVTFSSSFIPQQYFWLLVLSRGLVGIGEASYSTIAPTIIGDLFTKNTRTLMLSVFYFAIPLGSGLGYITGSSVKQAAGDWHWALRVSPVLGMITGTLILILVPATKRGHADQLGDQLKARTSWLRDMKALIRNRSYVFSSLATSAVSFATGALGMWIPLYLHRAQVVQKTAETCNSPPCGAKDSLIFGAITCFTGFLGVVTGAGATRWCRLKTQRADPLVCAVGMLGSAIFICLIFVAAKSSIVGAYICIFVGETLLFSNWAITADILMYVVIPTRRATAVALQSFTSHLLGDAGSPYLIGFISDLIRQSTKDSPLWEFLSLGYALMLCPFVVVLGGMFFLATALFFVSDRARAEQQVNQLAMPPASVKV
Test: cell-based or functional assay
Endpoint name: pIC50, S1P transport inhibition (S1PR3 Ca2+ FLIPR bioassay)

Guide cases for pIC50, S1P transport inhibition (S1PR3 Ca2+ FLIPR bioassay), answers given:
Binder	Result
94-1311E (antibody, V domains shown) VH: EVQLQQSGAGLVRPRTSVRLSCKISGDSITAYYVHFVKQRPGQGLEWIGRIDPEDDSTKYSEKFKNKATLTADVSSSTAYLILSSLTSDDSATYFCSTLTGLDYWGQGVMVTVSS VL: DIQMTQSPPVLSASVGDRVTLSCKASQSVHNKLDWYQQKHGEAPKLLIYYTHNLQTGIPSRFSGSGSGSDYTLTISSLRAEDVATYYCFQYYSGWTFGGGTKLEMKR	7.8 pIC50 (M)
93-1310F (antibody, IgG2b, V domains shown) VH: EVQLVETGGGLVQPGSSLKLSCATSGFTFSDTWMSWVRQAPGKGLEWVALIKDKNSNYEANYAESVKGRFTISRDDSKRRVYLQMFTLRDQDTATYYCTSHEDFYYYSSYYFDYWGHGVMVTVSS VL: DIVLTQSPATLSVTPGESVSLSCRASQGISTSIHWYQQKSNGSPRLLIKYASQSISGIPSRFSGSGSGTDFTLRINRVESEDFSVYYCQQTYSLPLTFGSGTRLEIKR	7.6 pIC50 (M)

Now consider the entry below.
query: Param item = 80-1104A (antibody, IgG2b, V domains shown) VH: EVQLVETGGGLVQPGSSLKLSCSTSGFTFSETWMSWVRQAPGKGLEWVGLIKDKNSNYEANYAESVKGRFTISRDDSKRRVYLQMYTLRDQDTATYYCTSHEDFYYYSSYYFDYWGQGVMVTVSS VL: DIVLTQSPATLSVTPGESVSLSCRASQGISTSIHWYQQKSNESPRLLIKYASQSMSGIPSRFSGSGSGTDFTLRINRVESEDFSVYYCQQSYNLPLTFGSGTKLEIKR ; retrieve measured pIC50, S1P transport inhibition (S1PR3 Ca2+ FLIPR bioassay).
result: 7.5 pIC50 (M)

Measured values drawn from patent US20210147523A1 for this set.
